# Tested on: EKVX NSCLC
# EXPERIMENTAL_DETAILS: NCI tumour cell line growth inhibition, 48 h
Where a SMILES comes first, the peptide text is derived from it. [ ]: non-standard residue; d: D form. The star is where a group is joined. NMeAc5c = CNC1(C(=O)O)CCCC1; Boc = CC(C)(C)OC(=O)*; OBn = c1ccc(CO*)cc1
VALUE_TYPE: TGI

Before answering, review these 6 worked examples.
- COMPOUND: "Cc1ccc([N+](=O)[O-])cc1NC1=NCCO1"
  ASSAY_VALUE: "> 100 µM"
- COMPOUND: "C[N+](C)(C)CC(=O)N/N=C(/CC(=O)CC(C1=C(O)c2ccccc2OC1)c1ccccc1)C(=O)Nc1cccc(Cl)c1 (centres undefined)"
  ASSAY_VALUE: "> 100 µM"
- COMPOUND: "CC(C)=CCC\\C(C)=C/C=C/C(C)=C\\C=C\\C(C)=C/C=C/C=C(C)\\C=C\\C=C(C)/C=C/C=C(/C)CCC=C(C)C"
  ASSAY_VALUE: "> 100 µM"
- COMPOUND: "COC(=O)c1cc(=O)nc2sc3cccc(C)c3n12"
  ASSAY_VALUE: "> 100 µM"
- COMPOUND: "COC(CCC[N+](C)(C)C)CC[N+](C)(C)C (centres undefined)"
  ASSAY_VALUE: "> 100 µM"
- COMPOUND: "COC1/C=C/OC2(C)Oc3c(C)c(O)c4c(O)c(c(/C=N/Nc5ccc([N+](=O)[O-])cc5[N+](=O)[O-])c(O)c4c3C2=O)NC(=O)C(C)=C/C=C/C(C)C(O)C(C)C(O)C(C)C(OC(C)=O)C1C (centres undefined)"
  ASSAY_VALUE: "> 50 µM"

Now for another entry.
(Q) I am curious: what TGI value has been reported for CN(C(=O)C(Cc1ccccc1)NC(=O)OC(C)(C)C)C1(C(=O)NC(Cc2ccccc2)C(=O)OCc2ccccc2)CCCC1 (stereo not drawn) (Boc-Phe-[NMeAc5c]-Phe-OBn; configuration not given here) ?
(A) > 100 µM

* * *

# Test system: SNB-75 CNS
# EXPERIMENTAL_DETAILS: NCI tumour cell line growth inhibition, 48 h
# maps each entry to its TGI

Recorded TGI, per entry:
- COMPOUND: "Cc1ccnc2c1ccc1c(C)ccnc12"
  TARGET_UNDER_TEST: "SNB-75 CNS"
  TGI: "14.6 µM"
- COMPOUND: "O=C(Nc1ccc(-n2ccc3c(NC(=O)c4ccccc4)nccc32)cc1)c1ccc(Cl)c(C(F)(F)F)c1"
  TARGET_UNDER_TEST: "SNB-75 CNS"
  TGI: "16.5 µM"
- COMPOUND: "Cc1cc(N(CCC#N)CCC#N)ccc1N=Nc1ccc(S(N)(=O)=O)cc1"
  TARGET_UNDER_TEST: "SNB-75 CNS"
  TGI: "> 100 µM"
- COMPOUND: "COC(=O)C1SC(SC)=NC12c1ccccc1Nc1ccccc12 (stereo unspecified)"
  TARGET_UNDER_TEST: "SNB-75 CNS"
  TGI: "> 100 µM"
- COMPOUND: "COCO[C@@H]1C[C@H]2C(=O)Nc3ccccc3C(=O)N2C1"
  TARGET_UNDER_TEST: "SNB-75 CNS"
  TGI: "> 100 µM"

The record that follows has no TGI shown yet.
(Q) Dear colleague, I am looking for the recorded TGI of the following compound: OCC1=CC(NC2CC(CO)C(O)C(O)C2O)C(O)C(O)C1O (stereo unspecified)
(A) > 100 µM

* * *

# Test system: MALME-3M melanoma
# EXPERIMENTAL_DETAILS: NCI tumour cell line growth inhibition, 48 h; in the data active = GI50 below about 0.43 µM; inactive = the rest
*1 amine or outer side, *2 acyl side, *3 side chain or, on linkers, in order; H or OH if unused. Where a SMILES comes first, the peptide text is derived from it. Bridges are numbered along the chain shown (N, C = ends). [ ]: non-standard residue; d: D form. The star is where a group is joined. Phe(3,5-F2) = N[C@@H](Cc1cc(F)cc(F)c1)C(=O)O; Pro(4R-Me) = C[C@H]1CN[C@H](C(=O)O)C1; aThr = C[C@H](O)[C@H](N)C(=O)O; Pip = O=C(O)[C@@H]1CCCCN1; X10 = Fc1cc(C2CC2)ccc1N*; CO = O=C([*:1])[*:2]
Choose one outcome from this list and give only that: active, inactive

See these solved cases before continuing.
- COMPOUND: "CC(=O)[CH-]C(=O)c1ccccc1.CC(=O)[CH-]C(=O)c1ccccc1.CN(C)c1ccc([O-])cc1.CN(C)c1ccc([O-])cc1.Cl.[Ti+4]"
  CLASS_NAME: "inactive"
- COMPOUND: "O=C(Nc1ccc(-n2ccc3c(NC(=O)c4ccccc4)nccc32)cc1)c1ccc(Cl)c(C(F)(F)F)c1"
  CLASS_NAME: "inactive"
- COMPOUND: "OCc1cc2ccccc2c2c3c(ccc12)OCO3"
  CLASS_NAME: "inactive"
- COMPOUND: "OCCN(CCO)c1ncnc2c1ncn2Cc1ccc(CCl)cc1"
  CLASS_NAME: "inactive"
- COMPOUND: "COC([CH2][Hg][n]1cnc2c1c(=O)n(C)c(=O)n2C)CN1C(=O)c2ccccc2S1(=O)=O (stereo not given)"
  CLASS_NAME: "inactive"

(Q) Record lookup: outcome of this test for C[C@@H]1C[C@H]2C(=O)O[C@@H](C)[C@H](NC(=O)[C@H](Cc3cc(F)cc(F)c3)NC(=O)Nc3ccc(C4CC4)cc3F)C(=O)N3CCC[C@H]3C(=O)N3CCCC[C@H]3C(=O)N[C@@H](C)C(=O)N2C1 ({X10-CO}-[Phe(3,5-F2)][aThr]P[Pip]A[Pro(4R-Me)]; ester 2-C) ?
(A) active

(Q) Entry NC(N)=NS(=O)(=O)c1ccc(Nc2c3ccccc3nc3c(C(=O)NCCO)cccc23)cc1 : call = ?
(A) inactive

(Q) Assay outcome for Nc1ccccc1C#C/C=C\C#Cc1ccccc1OC(F)(F)F : what was it?
(A) inactive

(Q) Hey, what did the test say about CN(C)c1ccc(/C=C\C2=[N+](C)c3ccccc3C2(C)C)cc1 ?
(A) inactive

(Q) What outcome does the record of this test show for COc1ccc2c(c1)sc1nc(-c3ccccc3)c(-c3cccc4ccccc34)n12 ?
(A) inactive

* * *

Listing: TGI of selected compounds
# Test system: KM12 colon
# EXPERIMENTAL_DETAILS: NCI tumour cell line growth inhibition, 48 h

- COMPOUND: "COc1cc2c(c(OC)c1OC)C(=O)[C@@H]1[C@H]2N1C(N)=O"
  TARGET_UNDER_TEST: "KM12 colon"
  ASSAY_VALUE: "> 100 µM"

Could you now consider this next compound?
(Q) For the compound Cc1cn2c(/C=N/N=C(N)N)c(-c3cccc([N+](=O)[O-])c3)nc2s1 , what TGI is on record?
(A) 2.38 µM

* * *

# Tested on: CAKI-1 renal
# EXPERIMENTAL_DETAILS: NCI tumour cell line growth inhibition, 48 h
TGI values for the compounds below.

Some solved entries appear below for comparison.
- COMPOUND: "O=C(O)CCC(NC(=O)c1ccc(Nc2nc3ccccc3nc2-c2cccs2)cc1)C(=O)O (stereo unspecified)"
  TARGET_UNDER_TEST: "CAKI-1 renal"
  TGI: "> 100 µM"
- COMPOUND: "C=CC(=O)Nc1cc(Nc2ncc(C(=O)OC(C)C)c(-c3cn(C)c4ccccc34)n2)c(OC)cc1N(C)CCN(C)C"
  TARGET_UNDER_TEST: "CAKI-1 renal"
  TGI: "9.32 µM"
- COMPOUND: "NC(=O)NO.O.O.O.O.O.O.O.O.O.O.O.[Ge].[Ge].[Ge].[Ge].[Ge].[O]=[Ge].[O]=[Ge].[O]=[Ge].[O]=[Ge].[O]=[Ge][OH]"
  TARGET_UNDER_TEST: "CAKI-1 renal"
  TGI: "> 100 µM"
- COMPOUND: "C[C@@H](NC(=O)[C@@H]1C[C@]1(C)COC(=O)c1cc([N+](=O)[O-])cc([N+](=O)[O-])c1)c1cccc2ccccc12"
  TARGET_UNDER_TEST: "CAKI-1 renal"
  TGI: "> 100 µM"
- COMPOUND: "COc1cc(C2c3cc4c(cc3OC(N3CCOCC3)C2C)OCO4)ccc1O (stereo unspecified)"
  TARGET_UNDER_TEST: "CAKI-1 renal"
  TGI: "71.1 µM"
- COMPOUND: "O=C1/C(=C/c2ccccc2)N=C2Sc3c(nc[nH]c3=O)N12"
  TARGET_UNDER_TEST: "CAKI-1 renal"
  TGI: "> 100 µM"
- COMPOUND: "Cc1nc2sccn2c1-c1csc(Nc2ccccc2Cl)n1"
  TARGET_UNDER_TEST: "CAKI-1 renal"
  TGI: "40.7 µM"
- COMPOUND: "Cn1cc(C2=C(c3c4n(c5ccccc35)CCCCC4)C(=O)NC2=O)c2ccccc21"
  TARGET_UNDER_TEST: "CAKI-1 renal"
  TGI: "> 20.2 µM"

Switching to the query record.
(Q) Need TGI of COC(=O)c1ccccc1CC1Cc2ccc3c(c2C1=O)CCCC3 (stereo unspecified) , thanks.
(A) > 100 µM
